# TGI listing for each entry below
System: MDA-MB-435
Measurement Description: NCI tumour cell line growth inhibition, 48 h

Compound | Assay Target | TGI
C/C(=N\Nc1nc2cccnc2s1)c1ccccn1 | MDA-MB-435 | > 100 µM
COc1cc(C(=O)Nc2cc(OC)c3ccn(C)c3c2)cc2c1C[C@]1(C)CC[C@@H](O)C(C)(C)[C@H]1O2 | MDA-MB-435 | 3.38 µM
O=S(=O)(/N=c1/scc(-c2ccccc2)n1-c1ccccc1)c1ccc(N2N=C3c4ccccc4CC3C2c2cccs2)cc1 (centres undefined) | MDA-MB-435 | > 100 µM
CN(C)c1ccc(/C=C/C2=[N+](C)c3ccccc3C2(C)C)cc1 | MDA-MB-435 | 11.7 µM

Entry O=C(O)c1ccc(C(=O)O)c(C(=O)Nc2ccc3c(c2)C(=O)c2ccccc2-3)c1 — recorded TGI = > 100 µM

Entry CC(=O)N1N=C2/C(=C/c3ccc(Cl)cc3)CC(C)CC2C1c1ccc(Cl)cc1 (centres undefined) — recorded TGI = > 100 µM

Entry Cc1ccc(Cl)c(Nc2ccccc2C(=O)O)c1Cl — recorded TGI = 85.3 µM

Entry Fc1ccc(-c2sc(-c3cccs3)cc2Cc2cccs2)cc1 — recorded TGI = > 100 µM

Entry O=C(Nc1ccc(/C=C/c2ccc(NC(=O)c3cc(S(=O)(=O)O)c4cccnc4c3O)cc2S(=O)(=O)O)c(S(=O)(=O)O)c1)c1cc(S(=O)(=O)O)c2cccnc2c1O — recorded TGI = > 74.1 µM

====

System: MOLT-4 leukemia
Measurement Description: NCI tumour cell line growth inhibition, 48 h
# TGI listing for each entry below

Compound | TGI
COP(=O)(OC)C(O)CC(C)C (stereo not given) | > 100 µM

Entry COc1cc(/C=C/C(=O)N2CCN(C(=O)c3cc(OC)c(OC)c(OC)c3)CC2)ccc1OCCCOc1cc2c(cc1OC)C(=O)N1CCC[C@H]1C=N2 — recorded TGI = 1.59 µM

Entry CC(C)Cc1cc2c(cc1O)CCC1C2CC[C@@]2(C)C1CC[C@@H]2O (stereo not given in full) — recorded TGI = 17.2 µM

Entry CC(=O)OC12COC1CC(O)C1(C)C(=O)C(O)C3=C(C)C(O)CC(O)(C(OC(=O)c4ccccc4)C21)C3(C)C (stereo not given) — recorded TGI = > 100 µM

Entry CCN(CC)Cc1c(/C=C\c2cc(OC)c(OC)c(OC)c2)ccc(OC)c1O — recorded TGI = > 100 µM

====

# TGI listing for each entry below
Test system: MCF7 breast
Measurement Description: NCI tumour cell line growth inhibition, 48 h

See these solved cases before continuing.
Compound | TGI
OCc1ccc(N2CCc3ccccc3C2)cc1Cl | 55.3 µM
CN1CCN(c2ccc3nc(-c4ccc5nc(-c6ccc(O)cc6)[nH]c5c4)[nH]c3c2)CC1 | 422 µM

Entry O=C(O)CCCc1ccc2ccccc2c1 — recorded TGI = > 100 µM

Entry O=c1c2cc(Cl)cc(Cl)c2oc2nc3n(c(=O)c12)CCCS3 — recorded TGI = > 100 µM

Entry C/C(=N\Nc1nc2cccnc2s1)c1ccccn1 — recorded TGI = > 54.8 µM

Entry CCOC(=O)C(NC(=O)c1ccccc1)(Nc1ccc(Cl)cc1C(F)(F)F)C(F)(F)F (stereo unspecified) — recorded TGI = > 100 µM

These measurements were taken from PubChem BioAssay (NCI).
